B1: EEHEE_rd4_0647 (parent)
chain: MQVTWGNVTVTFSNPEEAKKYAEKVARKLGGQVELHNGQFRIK

# Variants of: B1
# Test: folding stability dG (cDNA display proteolysis); higher = more stable
# Measurement parameters: PBS, room temperature
Consider the following variants; for each one, report its folding stability dG.
Answer with a number only, understood to be in kcal/mol.

Would you mind telling me what folding stability dG value was observed for `T11Y` ?
3.02

// folding stability dG lookup, key: `K19E`
2.21

Look at this variant and give its reported folding stability dG. `F12H`
0.464

What does the data say about its folding stability dG? Entry: `R27P`
0.58

Request the reported folding stability dG associated with `E16W`
2.75

Recorded folding stability dG for `K19S` , please?
2.12

Sample `Q2I` — what was its folding stability dG?
2.82

Using the record for `N37G` , report its folding stability dG.
2.32

Would you mind telling me what folding stability dG value was observed for `Q39D` ?
1.96

Record request: folding stability dG value, item `W5S`
0.968

Item under review: `A22R` . Reported folding stability dG?
0.493

Reported folding stability dG for `G38H` : what is it?
3.93

Which folding stability dG reading was recorded for the variant `N7C` ?
3.66

Suppose we examine the variant `V10A` ; what folding stability dG value has been reported?
1.97

I'd like to know its folding stability dG. The variant in question is `G6S`
2.08

Requested field: folding stability dG. Item: `V8N`
2.51

Recorded folding stability dG of `A26P` , please.
-0.236

Quick one: folding stability dG for `L29S` ?
2.02

What does the data say about its folding stability dG? Entry: `S13H`
2.62

Requested field: folding stability dG. Item: `G30D`
1.91

Fill in: folding stability dG of `N14M` is ___
1.99

Record request: folding stability dG value, item `R27F`
2.45
